- Measurement Description: chemical genetic growth profiling, strain panel (AID 1159580);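 also: tested at 20 µM; growth read once vehicle control cultures reached saturation at 30 °C; 1 = growth at the plate median or of vehicle wells; lower values mean less growth of the strain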
- Condition Summary: S. cerevisiae deletion strains, growth OD, locus YMR058W, strain fet3, hits give low values
About 2,000 (36%) of roughly 5,500 compounds were called active. Not shown: some 18% with an inconclusive outcome. This is one part of the list.
Outcome Measure: normalized growth
Answer field: number only, no words.

-- ask Would you kindly share the measured normalized growth for "Nc1nc(N)c2nc(-c3ccccc3)c(N)nc2n1" ?
-- reply 1.01

-- ask Same question, "NCCc1ccc(O)cc1" this time
-- reply 0.973

-- ask Same question, "CN(N=O)C(=O)N[C@@H]1[C@@H](O)[C@H](O)[C@@H](CO)O[C@@H]1O" this time
-- reply 1

-- ask Same question, "CC(=O)Nc1cccc(O)c1" this time
-- reply 1.02

-- ask Same question, [N-]=[N+]=CC(=O)OCC(N)C(=O)O (configuration not stated) this time
-- reply 1.01

-- ask Same question, "S=c1ccss1" this time
-- reply 0.962

-- ask Same question, "O=c1c(-c2ccc(O)cc2)coc2cc(O)cc(O)c12" this time
-- reply 1.01

-- ask Same question, CC(=O)O[C@H]1C[C@H](O[C@H]2[C@@H](O)C[C@H](O[C@H]3[C@@H](O)C[C@H](O[C@H]4CC[C@@]5(C)C(CCC6C5C[C@@H](O)[C@]5(C)[C@@H](C7=CC(=O)OC7)CC[C@]65O)C4)O[C@@H]3C)O[C@@H]2C)O[C@H](C)[C@H]1O[C@@H]1O[C@H](CO)[C@@H](O)[C@H](O)[C@H]1O (some centres not stated) this time
-- reply 1

-- ask Same question, "CCCCCCCCCc1ccc(O)cc1" this time
-- reply 0.0622

-- ask Same question, COc1cc([C@@H]2c3cc4c(cc3C(O[C@@H]3O[C@@H]5CO[C@@H](c6cccs6)OC5[C@H](O)[C@H]3O)C3COC(=O)[C@@H]32)OCO4)cc(OC)c1O (some centres not stated) this time
-- reply 0.993

-- ask Same question, "COc1ccc(-c2cc(=O)c3ccccc3o2)cc1OC" this time
-- reply 0.852

-- ask Same question, "N[C@H](CO)Cc1ccccc1" this time
-- reply 1.02

-- ask Same question, "COc1ccc(-c2cc(=O)c3ccccc3o2)cc1" this time
-- reply 0.804

-- ask Same question, CC(=O)O[C@@H]1CC2C(C)(C)[C@H](O)C[C@H](O)[C@]2(C)C2CC[C@@]3(C)[C@H](c4ccoc4)OC(=O)[C@H]4O[C@]43[C@@]21C (some centres not stated) this time
-- reply 0.989

-- ask Same question, "COc1ccc(-c2cc(=O)c3c(O)c(OC)c(OC)c(OC)c3o2)cc1" this time
-- reply 0.976

-- ask Same question, "Nc1nnc(-c2cccc(Cl)c2Cl)c(N)n1" this time
-- reply 1.02

-- ask Same question, "COc1cc([C@@H]2c3cc4c(cc3[C@H](OC(C)=O)[C@H]3COC(=O)[C@H]23)OCO4)cc(OC)c1OC" this time
-- reply 1.01

-- ask Same question, "CCCCC1C(=O)N(c2ccccc2)N(c2ccccc2)C1=O" this time
-- reply 0.993

-- ask Same question, "NCC(=O)CCC(=O)O" this time
-- reply 0.984

-- ask Same question, "Nc1ccc(C(=O)O)c(O)c1" this time
-- reply 0.995

-- ask Same question, "CC(C)Oc1ccc2c(=O)cc(-c3ccccc3)oc2c1" this time
-- reply 0.916

-- ask Same question, "Nc1ccc(C(=O)Oc2ccccc2)c(O)c1" this time
-- reply 0.929
